# System: 1405R3
# Experiment Notes: High-throughput drug screen, CellTiter-Glo viability, 72 h
# Format: cell-based, human
# Test Parameters: 1405R3 DSRT analysis; slope of fitted dose-response curve
Parameter Measured: SLOPE
// no unit, no text: just the number

Noted for `Nc1ccccc1NC(=O)c1cnccn1` : its SLOPE reads -0.1

Noted for `Cc1cc(Nc2ccc(NC(=O)c3ccc(Nc4ccnc5ccccc45)cc3)cc2)nc(N)n1` : its SLOPE reads -0.4

Noted for `CNCCN1CCC(OCc2ccccc2)CC1` : its SLOPE reads -0.1

Noted for `O=C1[C@H](Cc2ccc(O)cc2)N2C(=O)CCN(C(=O)NCc3ccccc3)[C@H]2CN1Cc1cccc2ccccc12` : its SLOPE reads -0.1

Noted for `Cc1nn2c([nH]c(=O)c3cccnc32)c1C#N` : its SLOPE reads -0.1

Noted for CCOC(=O)NCCCC(=O)NCCc1ccccc1 [Santacruzamate A] : its SLOPE reads -2.5

Noted for `CCN1CCN(C(=O)Cc2ccc(Nc3ncc(F)c(Nc4ccc(C(=O)Nc5ccccc5Cl)cc4)n3)cc2)CC1` : its SLOPE reads -2.5

Noted for `Nc1ccccc1NC(=O)CCCCCCC(=O)Nc1ccccc1` : its SLOPE reads -0.1

Noted for CN1CCC(CNc2ccc3ncc(-c4cccc(OC(F)(F)F)c4)n3n2)CC1 [SGI-1776 free base] : its SLOPE reads -2.5

* * *

# Test system: 783C-6
# Experiment Notes: High-throughput drug screen, CellTiter-Glo viability, 72 h
# Assay type: cell-based, human
# Test Parameters: 783C-6 cells, DSS of DSRT analysis
Parameter Measured: DSS
// no unit, no text: just the number

Noted for NC(=O)C1CCCc2c1[nH]c1ccc(Cl)cc21 (stereo not shown) [Selisistat] : its DSS reads 0

Noted for O=C(NCC1(c2nc(-c3ccccc3)cs2)CCOCC1)c1cccc(-c2noc(C(F)(F)F)n2)c1 [TMP269] : its DSS reads 2.5

Noted for C[C@@H]1O[C@@H](O[C@H]2[C@H](O[C@H]3[C@H](O[C@H]4CC[C@]5(C)[C@H]6CC=C7[C@@H]8CC(C)(C)CC[C@]8(C(=O)O)CC[C@@]7(C)[C@]6(C)CC[C@H]5C4(C)C)OC[C@H](O)[C@@H]3O)O[C@H](CO)[C@@H](O)[C@@H]2O)[C@H](O)[C@H](O)[C@H]1O [Raddeanin A] : its DSS reads 5.9

Noted for Cc1[nH]c2ccccc2c1CCNCc1ccc(/C=C/C(=O)NO)cc1 [Panobinostat, panobinostat] : its DSS reads 31.3

Noted for CC(=O)Nc1ccc(C(=O)Nc2ccccc2N)cc1 [Tacedinaline] : its DSS reads 0.3

Noted for O=C(O)C(Cc1c[nH]c2ccccc12)N1C(=O)c2ccccc2C1=O (stereo not shown) [RG108] : its DSS reads 0

Noted for O=C(CCCCCCC(=O)Nc1ccccc1)NO [vorinostat, reference compound] : its DSS reads 11.5

* * *

# Tested on: 1405R3
# Experiment Notes: High-throughput drug screen, CellTiter-Glo viability, 72 h
# Type: cell-based, human
# Test Parameters: 1405R3 DSRT analysis; slope of fitted dose-response curve
# if value of SLOPE reaches -0.4, tag satisfied; if it stays below, tag not satisfied

## Input # check: SLOPE of NC(=O)C1CCCc2c1[nH]c1ccc(Cl)cc21 (stereo not shown) [Selisistat] is greater than or equal to -0.4
## Output not satisfied

## Input # check: SLOPE of CC(=O)Nc1ccc(C(=O)Nc2ccc(F)cc2N)cc1 [BRD3308] is greater than or equal to -0.4
## Output satisfied

## Input # check: SLOPE of O=S(=O)(Cl)c1ccc(-c2ccccc2)cc1 [Biphenyl-4-sulfonyl chloride] is greater than or equal to -0.4
## Output satisfied

## Input # check: SLOPE of O=C(O)C(Cc1c[nH]c2ccccc12)N1C(=O)c2ccccc2C1=O (stereo not shown) [RG108] is greater than or equal to -0.4
## Output not satisfied

## Input # check: SLOPE of O=C1NC(=O)/C(=C/c2cccc(C(F)(F)F)c2)S1 [SMI-4a] is greater than or equal to -0.4
## Output not satisfied

## Input # check: SLOPE of Clc1ccc(N/N=C(\c2ccccc2)c2ccccn2)nc1 [JIB-04] is greater than or equal to -0.4
## Output not satisfied

## Input # check: SLOPE of COc1ccccc1S(=O)(=O)Nc1ccc2c(c1)CN(C)C(=O)N2 [PFI-1] is greater than or equal to -0.4
## Output not satisfied

## Input # check: SLOPE of O=C(NO)c1cccc(C(=O)NCCc2ccccc2)c1 [BRD73954] is greater than or equal to -0.4
## Output satisfied

## Input # check: SLOPE of CCCC(=O)[O-].[Na+] [Sodium butyrate] is greater than or equal to -0.4
## Output satisfied

## Input # check: SLOPE of COc1ccc(N(C)c2nc(C)nc3ccccc23)cc1OCCCC(=O)NO [SKLB-23bb] is greater than or equal to -0.4
## Output not satisfied

## Input # check: SLOPE of CN1CCc2c(c3ccccc3n2Cc2ccc(C(=O)NO)cc2)C1.Cl [Tubastatin A HCl] is greater than or equal to -0.4
## Output not satisfied

## Input # check: SLOPE of O=C(NO)c1cnc(NC2(c3cccc(F)c3)CCCCC2)nc1 [ACY-775] is greater than or equal to -0.4
## Output not satisfied

## Input # check: SLOPE of CCCCCCCCCCCCCC(=S)NCCCC[C@H](NC(=O)OCc1ccccc1)C(=O)Nc1ccccc1 [Thiomyristoyl] is greater than or equal to -0.4
## Output satisfied

## Input # check: SLOPE of CC(C)(C)OC(=O)Nc1ccc(-c2cc(C(=O)NCCCCCCC(=O)NO)no2)cc1 [CAY10603] is greater than or equal to -0.4
## Output not satisfied

## Input # check: SLOPE of CC(C)(CNC(=O)c1cccc(-c2noc(C(F)(F)F)n2)c1)c1coc(-c2ccccc2)n1 [TMP195] is greater than or equal to -0.4
## Output not satisfied

## Input # check: SLOPE of Cc1cc(Cl)ccc1OCCCC(=O)NO [Droxinostat] is greater than or equal to -0.4
## Output not satisfied

## Input # check: SLOPE of O=C(O)CCNc1cc(N2CCc3ccccc3CC2)nc(-c2ccccn2)n1 [GSK J1] is greater than or equal to -0.4
## Output satisfied

## Input # check: SLOPE of O=C(O)C(=O)O.[NH-][C@@H]1CCCC[C@H]1[NH-].[Pt+2] [Oxaliplatin] is greater than or equal to -0.4
## Output not satisfied

## Input # check: SLOPE of CCCCNNC(=O)c1ccc(-c2cccc(F)c2F)cc1 [SR-4370] is greater than or equal to -0.4
## Output not satisfied

## Input # check: SLOPE of Cc1cc(-c2ccc3nc(C4CCOCC4)n(CCOC(F)(F)F)c3c2)cn(C)c1=O [NEO2734] is greater than or equal to -0.4
## Output not satisfied

## Input # check: SLOPE of N[C@@H]1CCCN(c2c(/C=C3\SC(=O)NC3=O)cccc2-c2ccccc2)C1 [AZD1208] is greater than or equal to -0.4
## Output satisfied

## Input # check: SLOPE of CCC(CC)(NC(=O)C(C)C)C(=O)N[C@@H](CCCN=C(N)N)C(=O)NC1(C(=O)NC(c2ccc(F)cc2)c2ccc(F)cc2)CCCC1 [MM-102] is greater than or equal to -0.4
## Output satisfied

## Input # check: SLOPE of C/C(=N\NC(=O)c1cccc(S(=O)(=O)N2CCOCC2)c1)c1cc(Cl)ccc1O [SP2509] is greater than or equal to -0.4
## Output not satisfied

## Input # check: SLOPE of Cc1sc2c(c1C)C(c1ccc(Cl)cc1)=N[C@@H](CC(=O)NCCCCCCCCNC(=O)COc1cccc3c1C(=O)N(C1CCC(=O)NC1=O)C3=O)c1nnc(C)n1-2 (stereo partly shown) [DBET6] is greater than or equal to -0.4
## Output not satisfied

* * *

# System: 783C-6
# Experiment Notes: High-throughput drug screen, CellTiter-Glo viability, 72 h
# Type: cell-based, human
# Parameters: scale not given here
# Test Parameters: 783C-6 DSRT analysis; area under the dose-response curve
Task for the reader: assign each of the following molecules its reported AUC.
// no unit, no text: just the number

Noted for O=C(NO)c1ccc(CC(=O)N(CCO)c2ccccc2)cc1 [HPOB] : its AUC reads 0.4

Noted for COc1cc(/C=C/C(=O)CC(=O)/C=C/c2ccc(O)c(OC)c2)ccc1O [Curcumin] : its AUC reads 2.1

Noted for Cc1cn(CCN2CCN(c3ccccc3-c3cc(C#N)cc(C(=O)NCCCN4CCCC4)c3)CC2)c2ccccc12 [LLY-507] : its AUC reads 36.6

Noted for O=S(=O)(Cl)c1ccc(-c2ccccc2)cc1 [Biphenyl-4-sulfonyl chloride] : its AUC reads 18.3

Noted for O=C(/C=C/c1cccc(S(=O)(=O)Nc2ccccc2)c1)NO [belinostat, reference compound] : its AUC reads 173.8

Noted for COc1cc2ncnc(Nc3ccc(F)c(Cl)c3)c2cc1OCCCN1CCOCC1 [Gefitinib] : its AUC reads 27

Noted for O=C(O)CCCc1ccccc1 [Benzenebutyric acid] : its AUC reads 1.4

Noted for Cn1c(/C=C/C(=O)NO)ccc1/C=C/C(=O)c1cccc(F)c1 [MC1568] : its AUC reads 0.2

Noted for O=C(CCc1ccc(CN[C@H](C(=O)OC2CCCC2)C2CCCCC2)cn1)NO [GSK3117391] : its AUC reads 65.5

Noted for CNCCN(C)Cc1cn[nH]c1-c1ccc(OC2CC(OCCC3CCOCC3)C2)cc1.Cl (stereo not drawn) [EPZ020411 2HCl] : its AUC reads 1.7

Noted for COc1cc2c(Oc3ccc(NC(=O)C4(C(=O)Nc5ccc(F)cc5)CC4)cc3F)ccnc2cc1OCCCN1CCOCC1 [Foretinib] : its AUC reads 37.2

Noted for COc1cc2nc(N3CCCN(C)CC3)nc(NC3CCN(Cc4ccccc4)CC3)c2cc1OC [BIX 01294] : its AUC reads 42.4

Noted for Cc1noc2c1-c1ccccc1C(c1ccc(Cl)cc1)=N[C@H]2CC(N)=O [CPI-0610] : its AUC reads 34.4

Noted for COc1cc2nccc(Oc3ccc(NC(=O)NC4CC4)c(Cl)c3)c2cc1C(N)=O [Lenvatinib] : its AUC reads 8.6

Noted for O=C(O)[C@]1(Cc2cccc(Nc3nccs3)n2)CC[C@@H](Oc2cccc(Cl)c2F)CC1 [MK-5108] : its AUC reads 61.3

Noted for CN(C)NC(=O)CCC(=O)O [Daminozide] : its AUC reads 1

Noted for O=C(NO)c1cnc(NC2(c3ccccc3)CC2)nc1 [ACY-738] : its AUC reads 46.6

Noted for O=C(O)c1ccc(Nc2ncc3c(n2)-c2ccc(Cl)cc2C(c2c(F)cccc2F)=NC3)cc1 [MLN8054] : its AUC reads 8.8
